- tested system: Calcium/calmodulin-dependent protein kinase type IV (Homo sapiens) (UniProt Q16566)
- Sequence (Q16566 whole entry): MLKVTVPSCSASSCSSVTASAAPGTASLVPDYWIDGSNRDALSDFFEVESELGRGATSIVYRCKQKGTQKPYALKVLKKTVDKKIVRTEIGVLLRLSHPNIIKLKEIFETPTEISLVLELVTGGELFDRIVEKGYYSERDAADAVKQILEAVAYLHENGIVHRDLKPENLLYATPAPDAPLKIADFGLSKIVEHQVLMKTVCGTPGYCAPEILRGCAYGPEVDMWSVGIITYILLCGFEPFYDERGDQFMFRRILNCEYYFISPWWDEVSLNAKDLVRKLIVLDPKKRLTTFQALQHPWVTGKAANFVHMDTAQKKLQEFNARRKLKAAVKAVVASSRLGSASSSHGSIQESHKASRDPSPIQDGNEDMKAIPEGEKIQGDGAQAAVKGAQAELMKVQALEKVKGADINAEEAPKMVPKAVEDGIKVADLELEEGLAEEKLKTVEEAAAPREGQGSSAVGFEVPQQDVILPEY
- experimental conditions: at 1 µM
Reported values of inhibition for individual entries

substance smiles: CC(C)c1ccc(Nc2nccc(-c3cnn4ncccc34)n2)cc1
tested system: Calcium/calmodulin-dependent protein kinase type IV (Homo sapiens) (UniProt Q16566)
unit: %
inhibition: 2.83

substance smiles: CS(=O)(=O)Nc1cccc(-c2ccc3c(NC(=O)C4CC4)n[nH]c3c2)c1
tested system: Calcium/calmodulin-dependent protein kinase type IV (Homo sapiens) (UniProt Q16566)
unit: %
inhibition: 0.65

substance smiles: N#Cc1c(NC(=O)c2ccccc2F)sc2c1CCCC2
tested system: Calcium/calmodulin-dependent protein kinase type IV (Homo sapiens) (UniProt Q16566)
unit: %
inhibition: 1.11

substance smiles: Cc1ccc(O)cc1Nc1ccnc2ccc(S(C)(=O)=O)cc12
tested system: Calcium/calmodulin-dependent protein kinase type IV (Homo sapiens) (UniProt Q16566)
unit: %
inhibition: -1.84

substance smiles: CS(=O)(=O)CCNCc1nc(-c2ccc3ncnc(Nc4ccc(OCc5cccc(C(F)(F)F)c5)cc4)c3c2)cs1
tested system: Calcium/calmodulin-dependent protein kinase type IV (Homo sapiens) (UniProt Q16566)
unit: %
inhibition: 1.44

substance smiles: Cc1cc(-c2ccccn2)cc(C)c1/C=C/c1cncc(-c2nn[nH]n2)c1
tested system: Calcium/calmodulin-dependent protein kinase type IV (Homo sapiens) (UniProt Q16566)
unit: %
inhibition: -1.4

substance smiles: COc1cc2ncnc(Nc3ccc(C)c(O)c3)c2cc1OC
tested system: Calcium/calmodulin-dependent protein kinase type IV (Homo sapiens) (UniProt Q16566)
unit: %
inhibition: -3.77

substance smiles: Cc1ccc(C(=O)NC2CC2)cc1-c1ccc2[nH]ncc2c1
tested system: Calcium/calmodulin-dependent protein kinase type IV (Homo sapiens) (UniProt Q16566)
unit: %
inhibition: -2.16

substance smiles: CN(C)CCCn1c(-c2nonc2N)nc2cnccc21
tested system: Calcium/calmodulin-dependent protein kinase type IV (Homo sapiens) (UniProt Q16566)
unit: %
inhibition: 15.5

substance smiles: CN(c1ccc(NC(=O)Nc2ccc(OC(F)(F)F)cc2)cc1)c1ccnc(Nc2cccc(S(N)(=O)=O)c2)n1
tested system: Calcium/calmodulin-dependent protein kinase type IV (Homo sapiens) (UniProt Q16566)
unit: %
inhibition: 0.59

substance smiles: N#Cc1cccc(Nc2nccc(-c3cnn4ncccc34)n2)c1
tested system: Calcium/calmodulin-dependent protein kinase type IV (Homo sapiens) (UniProt Q16566)
unit: %
inhibition: -0.33

substance smiles: Cc1ccc(NC(=O)CC2CC2)cc1-c1ccc(C(=O)NCC2CC2)cc1
tested system: Calcium/calmodulin-dependent protein kinase type IV (Homo sapiens) (UniProt Q16566)
unit: %
inhibition: -0.84

substance smiles: NS(=O)(=O)c1ccc(N/N=C2\C(=O)Nc3ccc(Cl)cc32)cc1
tested system: Calcium/calmodulin-dependent protein kinase type IV (Homo sapiens) (UniProt Q16566)
unit: %
inhibition: -3.41

substance smiles: Nc1nccc(-c2c(-c3ccc(F)cc3)ncn2CCCN2CCOCC2)n1
tested system: Calcium/calmodulin-dependent protein kinase type IV (Homo sapiens) (UniProt Q16566)
unit: %
inhibition: -0.08

substance smiles: O=S(=O)(CCOCc1ccc(-c2ccc3ncnc(Nc4ccc(OCc5cccc(F)c5)c(Cl)c4)c3c2)o1)c1ccccc1
tested system: Calcium/calmodulin-dependent protein kinase type IV (Homo sapiens) (UniProt Q16566);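 further: each value is the mean of the measured CAMK4 inhibition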
unit: %
inhibition: -1.67

###

Reported values of inhibition for individual entries
- tested system: MAP/microtubule affinity-regulating kinase 4 (Homo sapiens) (UniProt Q96L34);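 further: reported value is a mean MARK4 inhibition at 1 µM, taken from the GSK PKIS screening set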
- Sequence (whole entry): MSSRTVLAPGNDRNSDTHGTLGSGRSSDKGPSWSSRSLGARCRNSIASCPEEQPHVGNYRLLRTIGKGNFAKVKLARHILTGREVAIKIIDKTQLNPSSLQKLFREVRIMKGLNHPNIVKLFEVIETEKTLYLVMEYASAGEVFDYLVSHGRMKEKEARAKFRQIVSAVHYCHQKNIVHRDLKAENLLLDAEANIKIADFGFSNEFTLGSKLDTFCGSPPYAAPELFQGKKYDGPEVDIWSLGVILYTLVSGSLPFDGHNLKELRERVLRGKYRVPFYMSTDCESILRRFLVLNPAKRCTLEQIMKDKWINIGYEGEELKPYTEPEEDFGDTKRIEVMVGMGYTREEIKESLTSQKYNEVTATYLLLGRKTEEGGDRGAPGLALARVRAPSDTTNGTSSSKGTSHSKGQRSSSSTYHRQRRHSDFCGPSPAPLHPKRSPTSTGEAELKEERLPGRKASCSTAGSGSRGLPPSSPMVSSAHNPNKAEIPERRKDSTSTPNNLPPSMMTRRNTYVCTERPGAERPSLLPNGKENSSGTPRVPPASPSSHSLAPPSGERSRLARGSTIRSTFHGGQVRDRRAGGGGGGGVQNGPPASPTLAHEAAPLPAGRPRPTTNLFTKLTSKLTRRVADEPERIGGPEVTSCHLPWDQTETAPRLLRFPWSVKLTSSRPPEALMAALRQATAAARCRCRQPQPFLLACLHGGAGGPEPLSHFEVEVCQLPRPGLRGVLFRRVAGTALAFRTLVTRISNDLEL
- experimental conditions: at 1 µM

substance smiles: CC(C)c1ccc(Nc2nccc(-c3cnn4ncccc34)n2)cc1
unit: %
inhibition: 2.61

substance smiles: Cc1ccc2c(c1)/C(=N/Nc1ccc(S(N)(=O)=O)cc1)C(=O)N2
unit: %
inhibition: 7.46

substance smiles: Nc1nccc(C#Cc2cncnc2Nc2ccc(OCc3cccc(F)c3)c(Cl)c2)n1
unit: %
inhibition: 7.4

substance smiles: C[C@@H](Oc1cc(-n2cnc3ccc(OCC4CCN(C)CC4)cc32)sc1C(N)=O)c1ccccc1C(F)(F)F
unit: %
inhibition: 49.9

substance smiles: Oc1cccc(-c2nc(-c3ccccc3)[nH]c2-c2ccncc2)c1
unit: %
inhibition: 2.71

substance smiles: N#Cc1cccc(Nc2nccc(-c3cnn4ncccc34)n2)c1
unit: %
inhibition: 9.89

substance smiles: NS(=O)(=O)c1ccc(Nc2cc(-c3cccc(O)c3)n[nH]2)cc1
unit: %
inhibition: 9.85

substance smiles: NC(=O)c1sc(-n2cnc3ccccc32)cc1OCc1ccccc1Br
unit: %
inhibition: 5.23

substance smiles: COc1cccc(-n2nc(C)c3c(N/N=C(\C)c4ccncc4)ncnc32)c1
unit: %
inhibition: -0.43

substance smiles: Cc1cc(Cl)cc2c1NC(=O)C2=NNc1ccc(S(N)(=O)=O)cc1
unit: %
inhibition: -0.34

substance smiles: CCn1c(-c2nonc2N)nc2ccc(F)cc21
unit: %
inhibition: 1.33

substance smiles: COc1cc(/C=N/Nc2ncnc3c2cnn3C(C)C)ccc1O
unit: %
inhibition: 4.17

substance smiles: O=C(Nc1ccc(Oc2ccc3[nH]c(NC(=O)c4ccco4)nc3c2)cc1)Nc1cc(C(F)(F)F)ccc1F
unit: %
inhibition: 2.11

substance smiles: CC(C)c1ccc2c(c1)NC(=O)/C2=N/Nc1ccc(S(N)(=O)=O)cc1
unit: %
inhibition: 0.13

substance smiles: CN1CCN(C(=O)c2ccc(NC(=O)Nc3ccc(N(C)c4ccnc(Nc5ccc(CS(C)(=O)=O)cc5)n4)cc3)cc2)CC1
unit: %
inhibition: 17.1

substance smiles: Cc1ccc(NC(=O)CC2CC2)cc1-c1ccc(C(=O)NCC2CC2)cc1
unit: %
inhibition: -0.01

substance smiles: CN(C)c1cc2c(Nc3ccc4c(cnn4Cc4ccccc4)c3)ncnc2cn1
unit: %
inhibition: 1.04

substance smiles: CN(c1ccc(NC(=O)Nc2ccc(OC(F)(F)F)cc2)cc1)c1ccnc(Nc2cccc(S(N)(=O)=O)c2)n1
unit: %
inhibition: 1.56

substance smiles: CCn1c(-c2nonc2N)nc2c(C#CC(C)(C)O)nc(OCCNC)cc21
unit: %
inhibition: 7.52

substance smiles: OCc1ccc(-c2nc(-c3ccccn3)c(-c3ccc4c(c3)OCO4)[nH]2)cc1
unit: %
inhibition: 2.19

substance smiles: COc1cc2ncnc(Nc3ccc4c(cnn4Cc4ccccc4)c3)c2cc1OC
unit: %
inhibition: 3.55

substance smiles: O=C1Nc2ccc(-c3cccnc3)cc2C1=Cc1cc(Br)c(O)c(Br)c1
unit: %
inhibition: 3.53

substance smiles: CN(C)C(=O)O[C@@H]1CN[C@@H](C#Cc2cc3ncnc(Nc4ccc(OCc5cccc(F)c5)c(Cl)c4)c3s2)C1
unit: %
inhibition: 1.37

substance smiles: COc1cccc(-n2ncc3c(N/N=C/c4ccc(C)cc4)ncnc32)c1
unit: %
inhibition: 5.11

substance smiles: COc1cc2ncnc(Nc3ccc(C)c(O)c3)c2cc1OC
unit: %
inhibition: 4.13

substance smiles: COc1ccc(-c2nn3ncccc3c2-c2ccnc(Nc3cccc(C(F)(F)F)c3)n2)cc1
unit: %
inhibition: 1.74

substance smiles: Cc1ccc(C(=O)NC2CC2)cc1-c1ccc2[nH]ncc2c1
unit: %
inhibition: 3.83

substance smiles: O=S(=O)(CCOCc1ccc(-c2ccc3ncnc(Nc4ccc(OCc5cccc(F)c5)c(Cl)c4)c3c2)o1)c1ccccc1
unit: %
inhibition: 3.69

###

- tested system: Serine/threonine-protein kinase MRCK alpha (Homo sapiens);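 further: each inhibition figure is a mean value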
- experimental conditions: at 0.1 µM
Reported values of inhibition for individual entries

substance smiles: CCS(=O)(=O)c1ccc(OC)c(Nc2nccc(N(C)c3ccc4c(C)n[nH]c4c3)n2)c1
unit: %
inhibition: -4.24
//
substance smiles: CN(C)C(=O)O[C@@H]1CN[C@@H](C#Cc2cc3ncnc(Nc4ccc(OCc5cccc(F)c5)c(Cl)c4)c3s2)C1
unit: %
inhibition: 0.14
//
substance smiles: FC(F)(F)c1ccc(-c2nn3ncccc3c2-c2ccnc(Nc3ccc4c(c3)OCCO4)n2)cc1
unit: %
inhibition: 7.63
//
substance smiles: NS(=O)(=O)c1ccc(-c2cc3ccncc3cc2OCc2ccccc2)cc1
unit: %
inhibition: -0.66
//
substance smiles: COc1cc2ncnc(Nc3ccc4c(cnn4Cc4ccccc4)c3)c2cc1OC
unit: %
inhibition: 1.92
//
substance smiles: NS(=O)(=O)c1ccc(NC=C2C(=O)Nc3ccc4ncsc4c32)cc1
unit: %
inhibition: 3.96
//
substance smiles: Cc1ccc2c(c1)/C(=N/Nc1ccc(S(N)(=O)=O)cc1)C(=O)N2
unit: %
inhibition: 0.22
//
substance smiles: C[C@@H](Oc1cc(-n2cnc3ccc(OC[C@@H](O)CO)cc32)sc1C(N)=O)c1ccccc1Cl
unit: %
inhibition: -0.35
//
substance smiles: COC(=O)c1cncc(/C=C/c2c(C)cc(O)cc2C)c1
unit: %
inhibition: -0.75
